Provide the recorded IC50 for the entries that follow.
# Tgt: GASC1 (KDM4C, JMJD2C) (Homo sapiens)
# Sequence (Q9H3R0 1-349): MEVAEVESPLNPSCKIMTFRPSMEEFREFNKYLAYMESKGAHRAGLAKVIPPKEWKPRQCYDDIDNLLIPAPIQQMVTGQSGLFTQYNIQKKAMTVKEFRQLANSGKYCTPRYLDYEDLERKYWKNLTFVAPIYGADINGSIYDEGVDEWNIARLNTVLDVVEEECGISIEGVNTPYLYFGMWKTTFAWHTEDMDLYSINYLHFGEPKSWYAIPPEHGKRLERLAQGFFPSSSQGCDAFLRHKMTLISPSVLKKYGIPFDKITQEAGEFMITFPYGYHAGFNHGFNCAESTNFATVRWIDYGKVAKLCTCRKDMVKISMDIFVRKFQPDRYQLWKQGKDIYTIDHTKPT

Please review the following examples before continuing.
Molecule: O=C(O)c1ccnc(CNCCCn2ccnc2)c1 [#1]
Tgt: GASC1 (KDM4C, JMJD2C) (Homo sapiens)
IC50: 100 to 1000 nM

Molecule: CCOC(=O)N(C)c1ccc(COC(=O)c2ccnc(CNCCCCN(CC)CC)c2)cc1 [#60]
Tgt: GASC1 (KDM4C, JMJD2C) (Homo sapiens)
IC50: ≥ 1000 nM

Molecule: O=C(O)c1ccnc(CNCCF)c1 [#8]
Tgt: GASC1 (KDM4C, JMJD2C) (Homo sapiens)
IC50: 100 to 1000 nM

Molecule: CCOC(=O)c1ccccc1OC(=O)c1ccnc(CNCCCCN(CC)CC)c1 [#52]
Tgt: GASC1 (KDM4C, JMJD2C) (Homo sapiens)
IC50: 100 to 1000 nM

// lookup IC50 for CC(C)=CCCC(C)CCN1CCC(NC(=O)CNCc2cc(C(=O)O)ccn2)C1 (centres unmarked) [#35]
< 100 nM

###

Consider the following compounds; for each one, report its pIC50.
# System: demethylation of H3K4 (H3K4me3 mark) in U2OS cells
# Assay procedure: Histone lysine demethylase immunofluorescence assay, non-transfected U2OS cells (H3K4me3 staining)
# Assay type: cell-based
# Setup conditions: Homo sapiens, 20 hours
pIC50: −log10 of the molar value.

Examples with answers:
Compound: CCN(CCN(C)C)C(=O)CNCc1cc(C(=O)Nc2nccn2C)ccn1 [drawing 254]
pIC50: 4.30 to 6.00
--
Compound: CCOC(=O)N(C)c1ccc(COC(=O)c2ccnc(CNCCCCN(CC)CC)c2)cc1 [drawing 236]
pIC50: > 6.00
--
Compound: CCOC(=O)c1ccnc(CNCC(=O)N(CC)CCN(C)C)c1 [drawing 241]
pIC50: > 6.00
--
Compound: CCN(CCN(C)C)C(=O)CNCc1cc(C(=O)OCC(F)F)ccn1 [drawing 256]
pIC50: > 6.00
--
Compound: CCN(CC)CCCCNCc1cc(C(=O)Oc2c(OC)cccc2OC)ccn1 [drawing 232]
pIC50: > 6.00
--
Compound: C=CC(CCNC(=O)C(F)(F)F)OC(=O)c1ccnc(CNCC(=O)N(CC)CCN(C)C)c1 (stereo not shown) [drawing 242]
pIC50: > 6.00

Please give pIC50 for each item listed below.
1. CCN(CCN(C)C)C(=O)CNCc1cc(C(=O)OC(CCNC(=O)C(F)(F)F)CC(=O)OC(C)C)ccn1 (stereo not shown) [drawing 250]
2. O=C(CNCc1cc(C(=O)O)ccn1)NC1CCN(CCCc2ccccc2)CC1 [drawing 223]
3. CCN(CCN(C)C)C(=O)CNCc1cc(C(=O)N(C)S(C)(=O)=O)ccn1 [drawing 247]
4. CCN(CCN(C)C)C(=O)CNCc1cc(C(=O)Nc2ncco2)ccn1 [drawing 252]

1. > 6.00
2. < 4.30
3. 4.30 to 6.00
4. 4.30 to 6.00

###

I'd be grateful if you could share measured pIC50 for these entries.
# Tgt: PLU1 (KDM5B) (Homo sapiens)
# Construct: 1-809; host or cells: E. coli
# Sequence (Q9UGL1 1-809): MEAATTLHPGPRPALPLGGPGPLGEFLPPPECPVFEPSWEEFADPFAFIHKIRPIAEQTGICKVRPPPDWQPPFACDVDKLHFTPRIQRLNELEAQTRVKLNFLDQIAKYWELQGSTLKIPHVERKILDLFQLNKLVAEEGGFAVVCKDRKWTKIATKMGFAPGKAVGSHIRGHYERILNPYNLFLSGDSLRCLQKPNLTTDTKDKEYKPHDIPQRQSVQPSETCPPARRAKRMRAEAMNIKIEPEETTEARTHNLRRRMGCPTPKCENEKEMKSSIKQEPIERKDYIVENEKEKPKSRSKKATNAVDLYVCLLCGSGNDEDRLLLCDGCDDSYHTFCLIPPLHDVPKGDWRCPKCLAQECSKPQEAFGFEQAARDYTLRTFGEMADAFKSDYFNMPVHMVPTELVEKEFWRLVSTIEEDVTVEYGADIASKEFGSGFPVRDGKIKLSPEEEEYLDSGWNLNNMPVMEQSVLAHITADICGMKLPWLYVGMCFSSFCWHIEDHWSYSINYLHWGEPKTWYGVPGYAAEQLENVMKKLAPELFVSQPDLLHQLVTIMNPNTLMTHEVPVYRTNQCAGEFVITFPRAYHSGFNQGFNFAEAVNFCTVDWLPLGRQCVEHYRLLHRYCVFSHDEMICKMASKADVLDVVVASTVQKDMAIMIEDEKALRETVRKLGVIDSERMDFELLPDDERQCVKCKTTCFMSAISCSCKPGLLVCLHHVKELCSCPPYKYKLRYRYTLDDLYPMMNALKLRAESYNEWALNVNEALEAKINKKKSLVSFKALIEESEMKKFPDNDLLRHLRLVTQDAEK
# Assay procedure: Histone lysine demethylase AlphaLISA assay, PLU1
# Assay type: biochemical
# Setup conditions: substrate H3K4M3B
# Description: Example 2: Histone Lysine Demethylase AlphaLISA Assays for IC50 Value Determination Assays are performed analogously to the protocol described by Perkin Elmer (Roy et al. Perkin Elmer Technical Note: AlphaLISA #12, April 2011). Enzymes are dissolved in enzyme buffer and incubated for 10 min before 5 μL is added to 5 μL 3% DMSO solutions of compounds in enzyme buffer. […] After incubation at room temperature in the dark the plates are read. […]
pIC50: −log10 of the molar value.

// each listed molecule needs a value for pIC50
1. O=C(O)c1ccnc(CNCCCNCCCN2CCCC2)c1
2. C=CC(CCN(C)C(=O)C(F)(F)F)OC(=O)c1ccnc(CNCC(=O)N(CC)CCN(C)C)c1 (stereo not drawn)

1. > 7.00
2. 6.00 to 7.00

###

Would you kindly list pIC50 for each of these molecules?
# Tgt: PLU1 (KDM5B) (Homo sapiens)
# Construct: 1-809; host or cells: E. coli
# Assay procedure: Histone lysine demethylase AlphaLISA assay, PLU1
# Format: biochemical
# Setup conditions: substrate H3K4M3B
pIC50: −log10 of the molar value.

Molecule: O=C(O)c1ccnc(CNCCCNCCOc2ccccc2)c1
Reported endpoint: pIC50
Recorded result: > 7.00

Provide pIC50 for all items below, preserving their order.
1. CCN(CCN(C)C)C(=O)CNCc1cc(C(=O)Nc2nccn2C)ccn1
2. CCN(CCN(C)C)C(=O)CNCc1cc(C(=O)OC(C)CC(C)=O)ccn1 (stereo not drawn)
3. CCCCCCCCCCCCCCCC(=O)OCC(COC(=O)c1ccnc(CNCC(=O)N(CC)CCN(C)C)c1)OC(=O)CCCCCCCCCCCCCCC (stereo not drawn)
4. CCN(CCN(C)C)C(=O)CNCc1cc(C(=O)Nc2nnc(C)o2)ccn1

["> 7.00", "> 7.00", "6.00 to 7.00", "> 7.00"]

###

# Tgt: JMJD2A (KDM4A) (Homo sapiens, UniProt O75164)
# Construct: Full length; host or cells: U2OS
# Sequence (O75164 whole entry): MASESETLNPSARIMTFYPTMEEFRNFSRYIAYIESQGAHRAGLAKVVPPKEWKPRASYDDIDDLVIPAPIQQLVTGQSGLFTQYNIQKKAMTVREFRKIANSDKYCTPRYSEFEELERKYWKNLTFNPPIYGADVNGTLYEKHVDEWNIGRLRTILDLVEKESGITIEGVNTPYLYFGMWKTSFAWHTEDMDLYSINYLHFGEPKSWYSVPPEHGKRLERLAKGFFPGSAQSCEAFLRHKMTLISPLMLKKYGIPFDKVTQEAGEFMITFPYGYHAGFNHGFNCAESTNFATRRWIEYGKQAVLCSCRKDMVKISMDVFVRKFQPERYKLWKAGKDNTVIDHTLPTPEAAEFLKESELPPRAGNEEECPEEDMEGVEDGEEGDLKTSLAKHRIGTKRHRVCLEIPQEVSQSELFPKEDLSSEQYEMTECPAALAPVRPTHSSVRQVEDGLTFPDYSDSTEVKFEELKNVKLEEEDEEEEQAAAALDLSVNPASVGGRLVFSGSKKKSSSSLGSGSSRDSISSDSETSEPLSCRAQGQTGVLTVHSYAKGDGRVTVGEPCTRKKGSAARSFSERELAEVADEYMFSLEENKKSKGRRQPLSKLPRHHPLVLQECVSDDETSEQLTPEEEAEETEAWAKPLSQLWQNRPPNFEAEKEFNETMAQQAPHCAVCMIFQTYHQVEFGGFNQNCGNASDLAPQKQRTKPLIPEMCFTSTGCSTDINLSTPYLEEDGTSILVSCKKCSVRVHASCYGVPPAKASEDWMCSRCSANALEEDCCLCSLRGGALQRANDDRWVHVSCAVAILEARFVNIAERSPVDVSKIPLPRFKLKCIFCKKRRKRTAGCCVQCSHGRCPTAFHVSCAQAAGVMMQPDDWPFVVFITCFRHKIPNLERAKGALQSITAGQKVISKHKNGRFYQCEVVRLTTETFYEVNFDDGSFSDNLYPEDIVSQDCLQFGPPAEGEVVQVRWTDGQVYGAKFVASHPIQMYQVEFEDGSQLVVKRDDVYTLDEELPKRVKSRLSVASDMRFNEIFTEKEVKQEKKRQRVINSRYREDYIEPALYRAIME
# Assay procedure: Immunofluorescence assay in U2OS cells transfected with pCMVHA JMJD2A (H3K9me3 mark)
# Type: cell-based
# Setup conditions: 20 hours
pIC50: −log10 of the molar value.
Reported endpoint: pIC50

// worked examples, pIC50 included
Compound: CCCCCCCCCCCCCCCC(=O)OCC(COC(=O)CCCCCCCCCCCCCCC)OC(=O)c1ccnc(CNCC(=O)N(CC)CCN(C)C)c1 [drawing 334]
pIC50: 4.30 to 6.00
//
Compound: CCN(CCN(C)C)C(=O)CNCc1cc(C(=O)O)ccn1 [drawing 328]
pIC50: 4.30 to 6.00
//
Compound: CSCCNCc1cc(C(=O)O)ccn1 [drawing 304]
pIC50: 4.30 to 6.00

Let us move to another entry and its pIC50.
Entry CCOC(=O)N(C)c1ccc(COC(=O)c2ccnc(CNCCCCN(CC)CC)c2)cc1 [drawing 333] has what pIC50?
> 6.00

###

# Tgt: GASC1 (KDM4C) (Homo sapiens, UniProt Q9H3R0)
# Construct: Full length
# Assay procedure: Immunofluorescence assay in U2OS cells transfected with pCMVHA JMJD2C (H3K9me3 mark)
# Setup conditions: 20 hours
pIC50: −log10 of the molar value.
Exercise: state measured pIC50 for each of the compounds provided.

Hello, I would appreciate it if you could give pIC50 for each entry below.
1. O=C(O)c1ccnc(CNCCCn2ccnc2)c1 [drawing 296]
2. O=C(CNCc1cc(C(=O)O)ccn1)NC1CCN(Cc2ccco2)CC1 [drawing 318]
3. CCN(CC)CCCCNCc1cc(C(=O)OCCN(C)C)ccn1 [drawing 331]

< 4.30
< 4.30
4.30 to 6.00

Hello, the source for this data is patent US10221139B2, in case you need it.
